Tested on: HCT116 cells
Experiment: In vitro cytotoxicity measured by the cell colony formation assay
Assay type: cell-based
Settings: HCT116 cells, 72 h drug incubation, colonies counted after 7 days; ID50 = drug concentration producing 50% inhibition of colony formation; read-out: IN VITRO ID 50 (nm) HCT116
Experimental: Four hundred cells (HCT116) were plated in 60 mm Petri dishes containing 2.7 mL of medium (modified McCoy's 5a medium containing 10% fetal bovine serum and 100 units/mL penicillin and 100 µg/mL streptomycin). The cells were incubated in a CO2 incubator at 37° C. for 5 h for attachment to the bottom of Petri dishes. […] The cell colonies were counted using a colony counter after incubation for 7 days. […]
Assay Readout: IC50

Example entries and their recorded answers appear below.
CCNC(=O)O[C@H]1C[C@H]2OC[C@@]2(OC(C)=O)C2[C@H](OC(=O)c3ccccc3)[C@]3(O)C[C@H](OC(=O)[C@H](O)[C@@H](NC(=O)OC(C)(C)C)c4ccco4)C(C)=C([C@@H](O)C(=O)[C@@]21C)C3(C)C (stereo partly drawn) [Compound 5393] :: < 0.001 µM
CCNC(=O)O[C@H]1C[C@H]2OC[C@@]2(OC(C)=O)C2[C@H](OC(=O)c3ccccc3)[C@]3(O)C[C@H](OC(=O)[C@H](O)[C@@H](NC(=O)C=C(C)C)c4ccco4)C(C)=C([C@@H](O)C(=O)[C@@]21C)C3(C)C (stereo partly drawn) [Compound 5588] :: < 0.001 µM
CC(=O)O[C@@]12CO[C@@H]1C[C@H](OC(=O)NC1CCCCC1)[C@@]1(C)C(=O)[C@H](O)C3=C(C)[C@@H](OC(=O)[C@H](O)[C@@H](NC(=O)OC(C)(C)C)c4ccco4)C[C@@](O)([C@@H](OC(=O)c4ccccc4)C12)C3(C)C (stereo partly drawn) [Compound 5373] :: < 0.01 µM
CCCNC(=O)O[C@H]1C[C@H]2OC[C@@]2(OC(C)=O)C2[C@H](OC(=O)c3ccccc3)[C@]3(O)C[C@H](OC(=O)[C@H](O)[C@@H](NC(=O)OC(C)(C)C)c4ccco4)C(C)=C([C@@H](O)C(=O)[C@@]21C)C3(C)C (stereo partly drawn) [Compound 5665] :: > 0.05 µM
C/C=C/C(=O)N[C@@H](c1ccco1)[C@@H](O)C(=O)O[C@H]1C[C@@]2(O)[C@@H](OC(=O)c3ccccc3)C3[C@](C)(C(=O)[C@H](O)C(=C1C)C2(C)C)[C@@H](OC(=O)Nc1ccccc1)C[C@H]1OC[C@@]31OC(C)=O (stereo partly drawn) [Compound 5757] :: < 0.01 µM

Q: Fill blank: measured IC50 of the compound CCC(C)(C)OC(=O)N[C@@H](c1ccco1)[C@@H](O)C(=O)O[C@H]1C[C@@]2(O)[C@@H](OC(=O)c3ccccc3)C3[C@](C)(C(=O)[C@H](O)C(=C1C)C2(C)C)[C@@H](OC(=O)Nc1ccccc1)C[C@H]1OC[C@@]31OC(C)=O (stereo partly drawn) [Compound 6399] is ____.
Ans: < 0.01 µM
